system: NCI-H1048 (Small Cell Lung Carcinoma); test: combination Emax (second highest fraction inhibited in the dose matrix, 72 h); higher = more inhibition; extreme values may be limits of the assay
measure: combination Emax
Lab note: record the figure alone, no unit after it.

Consider the worked cases shown below.
molecule	combination Emax
Cc1cc2ncnn2cc1Nc1ncc2c(n1)n(C1CCOCC1)c(=O)n2C [AZD7648] + CCN(CCO)CCCOc1ccc2c(Nc3cc(CC(=O)Nc4cccc(F)c4)[nH]n3)ncnc2c1 [AZD2811] (first compound max 10 µM, 7x7, partner max 1 µM)	0.706
Cc1c2c(nn1C)CSCc1cc(n(C)n1)CSc1cc(c3ccccc3c1)OCCCc1c(C(=O)O)n(C)c3c-2c(Cl)ccc13 [AZD5991] + CN(C)CCCOc1ccc(-c2ccc3ncc4c(c3c2)n(C2CCOCC2)c(=O)n4C)cn1 [AZD0156] (first compound max 1 µM, 7x7, partner max 1 µM)	0.984
C=CCn1c(=O)c2cnc(Nc3ccc(N4CCN(C)CC4)cc3)nc2n1-c1cccc(C(C)(C)O)n1 [AZD1775] + O=C(c1cc(Cc2n[nH]c(=O)c3ccccc23)ccc1F)N1CCN(C(=O)C2CC2)CC1 [Olaparib] (first compound max 1 µM, partner max 10 µM)	0.874
Cc1c2c(nn1C)CSCc1cc(n(C)n1)CSc1cc(c3ccccc3c1)OCCCc1c(C(=O)O)n(C)c3c-2c(Cl)ccc13 [AZD5991] + C[C@@H](Nc1cc(F)cc(F)c1)c1cc(C(=O)N(C)C)cc2c(=O)cc(N3CCOCC3)oc12 [AZD8186] (first compound max 1 µM, 7x7, partner max 3 µM)	0.965
NC1(C(=O)N[C@@H](CCO)c2ccc(Cl)cc2)CCN(c2ncnc3[nH]ccc23)CC1 [Capivasertib] + Cn1cnc2c(F)c(Nc3ccc(Br)cc3Cl)c(C(=O)NOCCO)cc21 [Selumetinib] (first compound max 10 µM, 7x7, partner max 10 µM)	0.7
CCc1c2c(nc3ccc(O)cc13)-c1cc3c(c(=O)n1C2)COC(=O)[C@]3(O)CC [SN-38] + O=C(c1cc(Cc2n[nH]c(=O)c3ccccc23)ccc1F)N1CCN(C(=O)C2CC2)CC1 [Olaparib] (first compound max 0.3 µM, 7x7, partner max 10 µM)	0.987
COc1nnc2ccc(N3CCC(c4ccc(OCCN5CCN(C)C(=O)[C@H]5C)cc4)CC3)nn12 [AZD5153] + Cc1c2c(nn1C)CSCc1cc(n(C)n1)CSc1cc(c3ccccc3c1)OCCCc1c(C(=O)O)n(C)c3c-2c(Cl)ccc13 [AZD5991] (first compound max 1 µM, 7x7, partner max 1 µM)	0.627
C=CCn1c(=O)c2cnc(Nc3ccc(N4CCN(C)CC4)cc3)nc2n1-c1cccc(C(C)(C)O)n1 [AZD1775] + C[C@@H]1COCCN1C2=NC(=NC(=C2)C3(CC3)[S@](=N)(=O)C)C4=C5C=CNC5=NC=C4 [AZD6738] (first compound max 1 µM, partner max 10 µM)	0.886

Request: Item CN(CCO)CC[C@H](CSc1ccccc1)Nc1ccc(S(=O)(=O)NC(=O)c2ccc(N3CCC([C@@H](O)c4ccccc4-c4ccc(Cl)cc4)CC3)cc2)cc1S(=O)(=O)C(F)(F)F [AZD4320] + CCN(CCO)CCCOc1ccc2c(Nc3cc(CC(=O)Nc4cccc(F)c4)[nH]n3)ncnc2c1 [AZD2811] (first compound max 1 µM, 7x7, partner max 1 µM) has what recorded combination Emax?
Result: 0.933

Request: Item NC1(C(=O)N[C@@H](CCO)c2ccc(Cl)cc2)CCN(c2ncnc3[nH]ccc23)CC1 [Capivasertib] + C[C@@H]1COCCN1C2=NC(=NC(=C2)C3(CC3)[S@](=N)(=O)C)C4=C5C=CNC5=NC=C4 [AZD6738] (first compound max 10 µM, 7x7, partner max 10 µM) has what recorded combination Emax?
Result: 0.667

Request: Item Cc1nc(Nc2ncc(C(=O)Nc3c(C)cccc3Cl)s2)cc(N2CCN(CCO)CC2)n1 [Dasatinib] + CC(=O)Nc1cccc(-n2c(=O)n(C3CC3)c(=O)c3c(Nc4ccc(I)cc4F)n(C)c(=O)c(C)c32)c1 [Trametinib] (first compound max 2 µM, 7x7, partner max 1 µM) has what recorded combination Emax?
Result: 0.144

Request: Item COc1nnc2ccc(N3CCC(c4ccc(OCCN5CCN(C)C(=O)[C@H]5C)cc4)CC3)nn12 [AZD5153] + C[C@@H]1COCCN1C2=NC(=NC(=C2)C3(CC3)[S@](=N)(=O)C)C4=C5C=CNC5=NC=C4 [AZD6738] (first compound max 1 µM, 7x7, partner max 10 µM) has what recorded combination Emax?
Result: 0.678

Request: Item CN(C)CCCOc1ccc(-c2ccc3ncc4c(c3c2)n(C2CCOCC2)c(=O)n4C)cn1 [AZD0156] + C[C@@H]1COCCN1C2=NC(=NC(=C2)C3(CC3)[S@](=N)(=O)C)C4=C5C=CNC5=NC=C4 [AZD6738] (first compound max 1 µM, 7x7, partner max 10 µM) has what recorded combination Emax?
Result: 0.468

Request: Item Cc1c2c(nn1C)CSCc1cc(n(C)n1)CSc1cc(c3ccccc3c1)OCCCc1c(C(=O)O)n(C)c3c-2c(Cl)ccc13 [AZD5991] + C=CCn1c(=O)c2cnc(Nc3ccc(N4CCN(C)CC4)cc3)nc2n1-c1cccc(C(C)(C)O)n1 [AZD1775] (first compound max 1 µM, partner max 1 µM) has what recorded combination Emax?
Result: 1
